tested on: KRAS PDC multicell spheroid viability; test: Anticancer human tumor 521955-158-R6-J3-PDC patient-derived pancreatic carcinoma cell line growth inhibition [KRAS2]; conditions: second compound 0.316 µM; first compound 0.316 µM; active compounds read low;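 further: drug exposure lasted seven days; 100% = DMSO vehicle wells and lower means fewer viable cells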
property label: viability, T/C (%)
Write it as a number; the unit % goes unstated.

Given COC(=O)c1ccc2c(C(=Nc3ccc(N(C)C(=O)CN4CCN(C)CC4)cc3)c3ccccc3)c(O)[nH]c2c1 + COc1cc2nc(C)nc(NC(C)c3cc(N)cc(C(F)(F)F)c3)c2cc1OC1CCOC1 , state its recorded viability, T/C.
91.4

Follow-up entry: CC1(C)CCC(CN2CCN(c3ccc(C(=O)NS(=O)(=O)c4ccc(NCC5CCOCC5)c([N+](=O)[O-])c4)c(Oc4cnc5[nH]ccc5c4)c3)CC2)=C(c2ccc(Cl)cc2)C1 + CC1OCC2(CCN(c3cnc(Sc4ccnc(N)c4Cl)c(N)n3)CC2)C1N
89

Same thing, different compound: COc1cc(Nc2ncc3c(n2)-c2ccc(Cl)cc2C(c2c(F)cccc2OC)=NC3)ccc1C(=O)O + COc1cc2nc(C)nc(NC(C)c3cc(N)cc(C(F)(F)F)c3)c2cc1OC1CCOC1
87.4

Then this compound: COc1cc2nccc(Oc3ccc(NC(=O)C4(C(=O)Nc5ccc(F)cc5)CC4)cc3)c2cc1OC + CNCc1ccccc1-c1csc(C(C)Nc2nc(C)nc3cc(OC)c(OC)cc23)c1
90.2
